- tested-target: His6-AspH315–758 (human aspartate/asparagine-β-hydroxylase, AspH) (Homo sapiens, UniProt Q12797)
- Construct: N-Terminally His6-tagged human AspH315–758 (His6-AspH315–758) was produced in E. coli BL21 (DE3) cells; made in house; host or cells: E. coli BL21 (DE3), pET-28a(+) vector
- Sequence (Q12797 315-758): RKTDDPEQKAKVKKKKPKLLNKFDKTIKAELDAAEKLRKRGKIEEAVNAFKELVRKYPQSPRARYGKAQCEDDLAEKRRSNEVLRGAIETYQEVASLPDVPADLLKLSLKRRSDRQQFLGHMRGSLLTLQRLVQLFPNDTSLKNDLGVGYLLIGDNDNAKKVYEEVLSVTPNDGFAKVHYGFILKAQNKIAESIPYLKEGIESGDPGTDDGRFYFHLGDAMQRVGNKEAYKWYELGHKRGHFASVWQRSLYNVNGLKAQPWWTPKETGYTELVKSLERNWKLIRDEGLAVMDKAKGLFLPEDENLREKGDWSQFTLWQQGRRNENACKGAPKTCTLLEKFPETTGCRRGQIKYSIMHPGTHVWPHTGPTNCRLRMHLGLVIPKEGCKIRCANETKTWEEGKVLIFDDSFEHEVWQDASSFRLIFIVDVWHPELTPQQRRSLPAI
- experiment-notes: SPE-MS AspH inhibition assay (LOPAC screen at fixed 20 μM and IC50 dose-response), hydroxylation of cyclic peptide hFX-CP101–119
- Format: biochemical
- stated-conditions: plate 5 (Pfitzer), test compounds at fixed 20 μM; mean conversion DMSO 32.88
Property: Plate 5 (% conversion); scope: individual molecules
Response body: numeric value in %, unit text excluded.

Some solved entries appear below for comparison.
structure-as-smiles: C[C@@H](Oc1cc(-c2cnn(C3CCNCC3)c2)cnc1N)c1c(Cl)ccc(F)c1Cl
Plate 5 (% conversion), %: 47.18
--
structure-as-smiles: C=C1C[C@@H]2[C@H](CC[C@]3(C)C(=O)CC[C@@H]23)[C@@]2(C)C=CC(=O)C=C12
Plate 5 (% conversion), %: 35.45
--
structure-as-smiles: O=C1NCCc2[nH]c(-c3ccncc3)cc21
Plate 5 (% conversion), %: 27.42
--
structure-as-smiles: CCOC(=O)C1=C(O)C(=O)N(Cc2ccccc2)C1
Plate 5 (% conversion), %: 29.70
--
structure-as-smiles: N[C@@H]1[C@H]2CN(c3nc4c(cc3F)c(=O)c(C(=O)O)cn4-c3ccc(F)cc3F)C[C@@H]12
Plate 5 (% conversion), %: 36.53

In the following, a different molecule is considered.
IN: Entry Cc1onc(-c2ccccc2)c1-c1ccc(S(N)(=O)=O)cc1 needs its Plate 5 (% conversion) filled in; supply it.
OUT: 26.79

====

- tested-target: His6-AspH315–758 (human aspartate/asparagine-β-hydroxylase, AspH) (Homo sapiens, UniProt Q12797)
- Construct: N-Terminally His6-tagged human AspH315–758 (His6-AspH315–758) was produced in E. coli BL21 (DE3) cells; made in house; host or cells: E. coli BL21 (DE3), pET-28a(+) vector
- experiment-notes: SPE-MS AspH inhibition assay (LOPAC screen at fixed 20 μM and IC50 dose-response), hydroxylation of cyclic peptide hFX-CP101–119
- Type: biochemical
- stated-conditions: LOPAC Plate 4, compound at 20 uM; read-out: % inhibition
Counter-ions that a name gives are not always drawn.
test-readout: inhibition at 20 µM (%)
Response body: numeric value in %, unit text excluded.

Some solved entries appear below for comparison.
molecule: Cc1ccc(N(CC2=NCCN2)c2cccc(O)c2)cc1 [Phentolamine mesylate]
inhibition at 20 µM / %: -7.04

molecule: COc1ccccc1OCC(O)CN1CCN(CC(=O)Nc2c(C)cccc2C)CC1 (stereo not shown) [Ranolazine dihydrochloride]
inhibition at 20 µM / %: -14.8

molecule: CN1CCN(CC(=O)N2c3ccccc3C(=O)Nc3cccnc32)CC1 [Pirenzepine dihydrochloride]
inhibition at 20 µM / %: -4.73

In the following, a different molecule is considered.
IN: Entry CC(C)(C)c1ccc(C(O)CCCN2CCC(C(O)(c3ccccc3)c3ccccc3)CC2)cc1 (stereo not shown) [Terfenadine] needs its inhibition at 20 µM filled in; supply it.
OUT: -25.4

====

- tested-target: His6-AspH315–758 (human aspartate/asparagine-β-hydroxylase, AspH) (Homo sapiens)
- Construct: N-Terminally His6-tagged human AspH315–758 (His6-AspH315–758) was produced in E. coli BL21 (DE3) cells; made in house; host or cells: E. coli BL21 (DE3), pET-28a(+) vector
- experiment-notes: SPE-MS AspH inhibition assay (LOPAC screen at fixed 20 μM and IC50 dose-response), hydroxylation of cyclic peptide hFX-CP101–119
- Format: biochemical
Structures can show the parent of a compound that is named as a salt.
test-readout: % conversion (%)
Response body: numeric value in %, unit text excluded.

compound: COc1ccc(CCN(C)CCCC(C#N)(c2ccc(OC)c(OC)c2)C(C)C)cc1OC.Cl (racemic) [(±)-Verapamil hydrochloride]
% conversion (%): 42.64

compound: CC(C)COC(=O)OCN1C(=O)CN(CCN2CC(=O)N(COC(=O)OCC(C)C)C(=O)C2)CC1=O
% conversion (%): 68.13

compound: O=[N+]([O-])c1ccc2c(c1)S(=O)(=O)C=C2
% conversion (%): 34.71

compound: O.O=c1cc(-c2ccccc2)oc2c(O)c(O)ccc12 [7,8-Dihydroxyflavone hydrate, reference compound]
% conversion (%): 2.70

compound: Cc1cccc(C)c1N=C1NCCCS1 [Xylazine hydrochloride]
% conversion (%): 33.11

IN: Entry Br.C=CCN1CCc2cc(O)c(O)cc2C(c2ccccc2)C1 (racemic) [(±)-SKF 38393, N-allyl-, hydrobromide] needs its % conversion filled in; supply it.
OUT: 11.46

IN: Entry CCCN(CCC)CCc1cccc2c1CC(=O)N2 [Ropinirole hydrochloride] needs its % conversion filled in; supply it.
OUT: 31.94

IN: Entry CC[C@]1(O)C[C@@H]2CN(CCc3c([nH]c4ccccc34)[C@@](C(=O)OC)(c3cc4c(cc3OC)N(C)[C@H]3[C@@](O)(C(=O)OC)[C@H](OC(C)=O)[C@]5(CC)C=CCN6CC[C@]43[C@@H]65)C2)C1.O=S(=O)(O)O [Vinblastine sulfate salt] needs its % conversion filled in; supply it.
OUT: 54.00

====

Property: Plate 1 (% conversion); scope: individual molecules
- tested-target: His6-AspH315–758 (human aspartate/asparagine-β-hydroxylase, AspH) (Homo sapiens)
- Construct: N-Terminally His6-tagged human AspH315–758 (His6-AspH315–758) was produced in E. coli BL21 (DE3) cells; made in house; host or cells: E. coli BL21 (DE3), pET-28a(+) vector
- experiment-notes: SPE-MS AspH inhibition assay (LOPAC screen at fixed 20 μM and IC50 dose-response), hydroxylation of cyclic peptide hFX-CP101–119
- Type: biochemical
- stated-conditions: LOPAC compound at fixed 20 uM; substrate conversion, plate 1
Counter-ions that a name gives are not always drawn.
Response body: numeric value in %, unit text excluded.

IN: Look up and report Plate 1 (% conversion), with His6-AspH315–758 (human aspartate/asparagine-β-hydroxylase, AspH) (Homo sapiens) as system, for NC(N)=NCCCCN=C(N)N [Arcaine sulfate]
OUT: 37.60

IN: Look up and report Plate 1 (% conversion), with His6-AspH315–758 (human aspartate/asparagine-β-hydroxylase, AspH) (Homo sapiens) as system, for N[C@@H]1CONC1=O (racemic)
OUT: 41.64

IN: Look up and report Plate 1 (% conversion), with His6-AspH315–758 (human aspartate/asparagine-β-hydroxylase, AspH) (Homo sapiens) as system, for C[C@H]1C[C@H]2[C@@H]3CCC4=CC(=O)C=C[C@]4(C)[C@@]3(Cl)[C@@H](O)C[C@]2(C)[C@@]1(O)C(=O)CO
OUT: 39.37

IN: Look up and report Plate 1 (% conversion), with His6-AspH315–758 (human aspartate/asparagine-β-hydroxylase, AspH) (Homo sapiens) as system, for Cc1c(-c2ccc(-c3ccccc3F)cc2)nc2ccc(F)cc2c1C(=O)[O-].[Na+] [Brequinar sodium salt hydrate]
OUT: 31.90

====

- tested-target: His6-AspH315–758 (human aspartate/asparagine-β-hydroxylase, AspH) (Homo sapiens)
- Construct: N-Terminally His6-tagged human AspH315–758 (His6-AspH315–758) was produced in E. coli BL21 (DE3) cells; made in house; host or cells: E. coli BL21 (DE3), pET-28a(+) vector
- Sequence (Q12797 315-758): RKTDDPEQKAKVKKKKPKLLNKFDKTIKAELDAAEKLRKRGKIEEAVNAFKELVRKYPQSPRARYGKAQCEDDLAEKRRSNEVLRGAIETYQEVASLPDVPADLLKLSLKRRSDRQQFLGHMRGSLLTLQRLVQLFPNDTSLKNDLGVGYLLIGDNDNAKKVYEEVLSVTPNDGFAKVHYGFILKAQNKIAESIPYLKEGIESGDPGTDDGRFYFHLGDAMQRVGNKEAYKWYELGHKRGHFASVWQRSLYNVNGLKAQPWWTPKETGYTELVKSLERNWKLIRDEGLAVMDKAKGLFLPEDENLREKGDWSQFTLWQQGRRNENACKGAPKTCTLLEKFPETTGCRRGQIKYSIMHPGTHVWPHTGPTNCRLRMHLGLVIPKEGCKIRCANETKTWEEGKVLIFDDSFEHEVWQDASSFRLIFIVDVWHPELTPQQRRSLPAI
- experiment-notes: SPE-MS AspH inhibition assay (LOPAC screen at fixed 20 μM and IC50 dose-response), hydroxylation of cyclic peptide hFX-CP101–119
- Format: biochemical
- stated-conditions: LOPAC compound at 20uM, plate 3; conversion of substrate peptide
Where a name gives a salt, the structure may show the parent alone.
test-readout: Plate 3 (% conversion) (%)
Response body: numeric value in %, unit text excluded.

compound: NC(N)=NCc1cccc(I)c1.NC(N)=NCc1cccc(I)c1.O=S(=O)(O)O [m-Iodobenzylguanidine hemisulfate]
measurement: 36.94
//
compound: CC(=O)Oc1cc(C(C)C)c(OCCN(C)C)cc1C [Moxisylyte hydrochloride]
measurement: 37.49
//
compound: CC(=N)NCCCC[C@H](N)C(=O)O.Cl [L-N6-(1-Iminoethyl)lysine hydrochloride]
measurement: 40.67
//
compound: O=C(Nc1cccc(C(=O)Nc2ccc(S(=O)(=O)O)c3cc(S(=O)(=O)O)cc(S(=O)(=O)O)c23)c1)Nc1cccc(C(=O)Nc2ccc(S(=O)(=O)O)c3cc(S(=O)(=O)O)cc(S(=O)(=O)O)c23)c1 [NF 023, reference compound]
measurement: 4.28
//
compound: Cc1ccc(Cl)c(Nc2ccccc2C(=O)O)c1Cl [Meclofenamic acid sodium]
measurement: 31.27

IN: Entry Cc1cnc(NC(=O)C2=C(O)c3ccccc3S(=O)(=O)N2C)s1 [Meloxicam sodium] needs its Plate 3 (% conversion) filled in; supply it.
OUT: 33.11

IN: Entry Cc1cc2c(cc1Cl)N(C(=O)Nc1ccc(Oc3cccnc3C)nc1)CC2.Cl.Cl.O [SB 242084 dihydrochloride hydrate] needs its Plate 3 (% conversion) filled in; supply it.
OUT: 37.92
